molecular target: AMP-activated protein kinase, AMPK (Homo sapiens) (UniProt P54646+O43741+P54619+Q9UGJ0+Q9Y478+Q13131+Q9UGI9); experiment: AMP-dependent Kinase enzyme assay. An in vitro enzyme assay that detects ADP turnover that is directly proportional to AMPK activity. This uses naive AMPK that is activated during the assay with MK-8722; format: functional; set-up: scale not given: direction of the effect not stated beside the values; settings: 30 µM
Provide the recorded Percent Effect for the entries that follow.
Express your answer in %, writing the number without its unit.

# Percent Effect (molecule: Cc1ccc(C(=O)NC2CCCN(C)C2)c(=O)[nH]1 (configuration not stated) ) is -3.1

# Percent Effect (molecule: CCc1ccc(CN2CCN(c3ccc(C#N)cc3)C(=O)C2)nc1 ) is 3.08

# Percent Effect (molecule: CNC(=O)c1noc(CN2CC[C@](C)(O)[C@H](C)C2)n1 ) is -4.9

# Percent Effect (molecule: CCOCCNC(=O)CCC1CCCO1 (configuration not stated) ) is 2.99

# Percent Effect (molecule: CN1CCC(Nc2ccc(Cl)cc2OCC(F)(F)F)C1=O (configuration not stated) ) is -3.53

# Percent Effect (molecule: Cc1cc(N(C)CC2COc3ccccc3O2)nc(C)n1 (configuration not stated) ) is 1.48

# Percent Effect (molecule: COCC1(C(=O)N[C@H]2CN(c3nnc(C)s3)C[C@@H]2C2CC2)CCC1 ) is 9.28

# Percent Effect (molecule: COCC1CCN(C(=O)c2cc(O)nc(CC(C)C)c2)CC1 ) is -1.75

# Percent Effect (molecule: CN(C)S(=O)(=O)N1CCCC(c2nccnc2-c2cccc(Cl)c2)C1 (configuration not stated) ) is 16

# Percent Effect (molecule: O=C(c1coc(COc2ccccc2F)n1)N1CCC[C@H]1CO ) is 8.7

# Percent Effect (molecule: OCC1(CCOc2ccccc2)CCN(c2ccc(Cl)cn2)CC1 ) is -2.64

# Percent Effect (molecule: CNC(=O)C1CN(C(=O)Cc2ccc(OC)cc2)Cc2cn(C)nc21 (configuration not stated) ) is -3.48
